Hey, just so you know, these numbers are from PubChem BioAssay (NCI).

growth inhibition: recorded values
# ASSAY_COMMENT: NCI Yeast Anticancer Drug Screen. Data for the sgs1 mgt1 strain (AID 161);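 note: 0% = growth of cultures given vehicle only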
# CONDITION_SUMMARY: S. cerevisiae sgs1 mgt1 strain, at 5.0 µM (retest, dose inferred, filed as 0.5), hits give high values
This is part of a sample that, as a whole, favours compounds with a hit. Of some 79,000 tested, about 15% had one in any assay.
All answers are understood in %, so give the number only.

>>> val("C(=C\\c1cccc2ccccc12)/c1ccncc1")
-14
>>> val("CO/N=C/c1ccc([N+](=O)[O-])s1")
-51
>>> val("CNC1c2ccccc2C(=O)c2cc3c(cc21)OCCOCCOCCOCCO3 (stereo unspecified)")
-10
>>> val("CC(=O)Nc1ccc2c(ccc3cccc[n+]32)c1")
1

**Q:** State the recorded growth inhibition for this entry: CCOC(=O)c1c(C)c2c(n1C)CCc1sc(N)nc1-2
**A:** 5

**Q:** And the next one, Oc1ccc(C2Oc3ccccc3C=C2c2ccccc2)cc1 (stereo unspecified) ?
**A:** 61

**Q:** And the next one, C=C1CC(O)C2C(C[Se]c3ccccc3)C(=O)O[C@@H]2C2C(=C)[C@@H](O)CC12 (stereo partly specified) ?
**A:** 0

**Q:** And the next one, O=C(CC(C(=O)O)c1c[nH]c2ccccc12)c1ccccc1 (stereo unspecified) ?
**A:** -5

**Q:** And the next one, N#CCCN(CCC#N)c1ccc(C(Sc2ccccc2)C(NC(=O)c2cc([N+](=O)[O-])ccc2Cl)C(=O)Sc2ccccc2)cc1 (stereo unspecified) ?
**A:** 30

**Q:** And the next one, CN(c1ccc(Cl)cc1)S(=O)(=O)c1cccc([N+](=O)[O-])c1 ?
**A:** -6

**Q:** And the next one, CC(C)NC(=O)OCCN=C1c2ccccc2CCc2ccccc21 ?
**A:** -46
